Target: F508delCFTR (Homo sapiens, UniProt P13569, DEL508-508)
Construct: expressed in transfected cells; host or cells: CFBE41o- (human lung derived epithelial cell line), doxycycline-inducible expression
Sequence (P13569 with tags, fused parts or gaps DEL508-508): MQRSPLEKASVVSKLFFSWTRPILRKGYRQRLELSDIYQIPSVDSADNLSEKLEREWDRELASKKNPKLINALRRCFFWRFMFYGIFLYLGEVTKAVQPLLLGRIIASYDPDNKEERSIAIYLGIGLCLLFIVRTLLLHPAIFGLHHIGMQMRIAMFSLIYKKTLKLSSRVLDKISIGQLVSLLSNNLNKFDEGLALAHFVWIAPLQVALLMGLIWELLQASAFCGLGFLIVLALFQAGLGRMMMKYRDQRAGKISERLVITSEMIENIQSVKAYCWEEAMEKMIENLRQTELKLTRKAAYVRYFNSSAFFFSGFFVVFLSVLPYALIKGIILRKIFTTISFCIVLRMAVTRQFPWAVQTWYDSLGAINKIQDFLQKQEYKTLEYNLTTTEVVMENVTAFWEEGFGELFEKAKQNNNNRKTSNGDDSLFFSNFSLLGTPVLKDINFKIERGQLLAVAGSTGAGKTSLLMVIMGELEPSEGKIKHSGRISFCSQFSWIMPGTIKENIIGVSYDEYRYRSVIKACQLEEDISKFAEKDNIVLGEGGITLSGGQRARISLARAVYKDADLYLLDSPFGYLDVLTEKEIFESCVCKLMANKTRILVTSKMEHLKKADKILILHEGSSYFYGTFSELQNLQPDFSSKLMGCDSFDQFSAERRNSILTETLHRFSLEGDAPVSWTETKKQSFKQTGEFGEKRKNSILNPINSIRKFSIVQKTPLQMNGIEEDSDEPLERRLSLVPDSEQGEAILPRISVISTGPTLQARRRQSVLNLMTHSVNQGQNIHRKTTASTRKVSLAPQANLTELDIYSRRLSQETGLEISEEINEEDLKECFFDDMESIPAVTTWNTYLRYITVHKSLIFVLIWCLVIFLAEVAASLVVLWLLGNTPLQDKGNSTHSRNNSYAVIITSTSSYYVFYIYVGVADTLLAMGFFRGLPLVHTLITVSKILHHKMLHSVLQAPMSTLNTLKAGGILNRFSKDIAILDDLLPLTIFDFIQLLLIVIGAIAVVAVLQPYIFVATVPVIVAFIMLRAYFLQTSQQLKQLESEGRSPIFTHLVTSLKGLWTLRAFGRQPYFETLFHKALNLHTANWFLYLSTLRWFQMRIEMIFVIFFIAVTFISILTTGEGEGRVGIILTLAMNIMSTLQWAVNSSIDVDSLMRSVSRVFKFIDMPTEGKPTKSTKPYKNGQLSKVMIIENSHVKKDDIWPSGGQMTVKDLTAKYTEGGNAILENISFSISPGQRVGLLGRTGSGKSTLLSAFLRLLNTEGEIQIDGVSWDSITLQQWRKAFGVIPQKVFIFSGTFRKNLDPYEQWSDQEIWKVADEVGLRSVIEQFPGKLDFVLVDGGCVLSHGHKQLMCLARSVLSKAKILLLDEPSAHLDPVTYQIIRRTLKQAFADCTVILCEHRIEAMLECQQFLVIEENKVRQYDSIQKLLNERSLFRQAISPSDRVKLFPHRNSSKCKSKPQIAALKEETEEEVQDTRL
Assay: Cell Surface Expression-Horse Radish Peroxidase (CSE-HRP) assay;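 also: % of on-plate positive control (2 µM of the co-corrector compound) after DMSO subtraction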
Format: cell-based
Details: CFBE41o-F508delCFTR-HRP cells; with co-corrector (2 μM); normalized to on-plate positive control; highest concentration 20 μM
MEASURE: Maximum % activity (with co-corrector)

Worked cases, Maximum % activity (with co-corrector) given:
{"SMILES REPRESENTATION": "COc1ccc(C(F)(F)F)cc1[C@](O)(CO)CO[C@H]1[C@H](C(C)(C)C)[C@@H](C(=O)O)N(C(=O)[C@@H]2CCCCO2)[C@H]1c1ccccc1C", "Maximum % activity (with co-corrector)": "++ (≥150 and <350)"}
{"SMILES REPRESENTATION": "COc1nc2ccccc2cc1CO[C@H]1[C@H](C(C)(C)C)[C@@H](C(=O)O)N(C(=O)[C@@H]2CCCCO2)[C@H]1c1ccccc1C(C)C", "Maximum % activity (with co-corrector)": "+++ (≥350)"}
{"SMILES REPRESENTATION": "COc1ncc(C(F)(F)F)cc1CO[C@H]1[C@H](C(C)(C)C)[C@@H](C(=O)O)N(C(=O)[C@@H]2CCCO2)[C@H]1c1cccc(C2CCC2)c1", "Maximum % activity (with co-corrector)": "++ (≥150 and <350)"}
{"SMILES REPRESENTATION": "COc1ncc(C(F)(F)F)cc1CO[C@H]1[C@H](C(C)(C)C)[C@@H](C(=O)O)N(C(=O)OC(C)C)[C@H]1c1ccccc1C1CCC1", "Maximum % activity (with co-corrector)": "+++ (≥350)"}

Moving on to the next compound.
Ask | Retrieve Maximum % activity (with co-corrector) on F508delCFTR (Homo sapiens, UniProt P13569, DEL508-508); query "COc1ncc(C(F)(F)F)cc1CO[C@H]1[C@H](C(C)(C)C)[C@@H](C(=O)O)N(C(=O)OC(C)C)[C@H]1c1cccc(Br)c1"
Reply | ++ (≥150 and <350)

Data provenance: patent US10399940B2
